biological target: HLA-DR DRB1*1101 (DR11) (Homo sapiens, UniProt P01903+P01911, A100R/A169T/A87E/I96F/K41T/L162R/M171V/P40S/Q125H/Q178H/Q39Y/Q99D/R42S/S66Y/T262R/V115G/W38E); test: biochemical; assay type: binding; settings: DRB1 *1101
Sequence (P01903 26-254 limits assumed, other chains not shown): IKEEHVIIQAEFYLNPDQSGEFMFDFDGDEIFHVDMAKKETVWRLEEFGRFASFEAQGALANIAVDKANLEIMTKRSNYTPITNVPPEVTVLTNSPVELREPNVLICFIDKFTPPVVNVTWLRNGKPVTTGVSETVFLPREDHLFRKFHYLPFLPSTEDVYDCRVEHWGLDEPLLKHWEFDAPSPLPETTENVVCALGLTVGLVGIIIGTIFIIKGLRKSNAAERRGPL
pIC50: −log10 of the molar value. No end group written: not given here.
Provide the reported pIC50 of each item.

A selection of reference data follows.
YLVCGERGFFYTKPT :: < 4.22
VYDFAFADLTVVYRE :: < 4.74
LTELYFEKGEYFVEM :: < 4.72
FVNQHLCGSDLVEAL [FVNQHLCGSDLVEAL] :: < 2.95
YLVCGERGFFYTDKT :: < 4.22

Hello, I would appreciate it if you could give pIC50 for each entry below.
1. YLVCGERGFFYTPKT
2. YLVCGERGFLYTPKT
3. SEVYDFAFADLTVVY
4. LQDVVLELTPQTEID
5. QHLCGSHLVEALYLV
6. IDGVNHQHLPARRAE
7. KVSCKGSGYTFTAYQMH
8. DFAFADLTVVYREGN

1: < 4.98; 2: < 2.95; 3: < 4.74; 4: < 4.50; 5: < 4.98; 6: < 4.25; 7: < 3.70; 8: < 4.74

// fetch pIC50 given entry TEVLDFAFTDLTIVY < 4.74
